Provide the recorded cytotoxicity at 10 µM for the entries that follow.
test: Toxicity liver stage against HepG2, at 10uM; format: cell-based; parameters: test concentration 10 uM, cell line HepG2-A16-CD81EGFP; conditions: human, HepG2-A16-CD81EGFP cells; read-out: INHIBITION
Numbers only, in %.

Consider the following illustrative entries.
{"compound": "CC1CCN(CCNCc2cc(-c3ccccc3)cn3nnnc23)CC1", "experimental.value": -20.4}
{"compound": "CC(C)C(=O)N1CCC(CNc2nc(C(C)C)nc3c2cnn3C)CC1", "experimental.value": -4.25}
{"compound": "CCOc1cccc(CCNC(=O)Cc2cccc(O)c2)n1", "experimental.value": -5.26}
{"compound": "Cc1ccc(-c2nc(CNc3ccc(C(N)=O)c(C)c3)cs2)o1", "experimental.value": 23.9}
{"compound": "CC1(C)CNC(=O)CN(C(=O)COc2ccccc2)C1", "experimental.value": 1.4}

Would you mind giving cytotoxicity at 10 µM for every compound in the list below?
1. CCN(CC(=O)NC(C)(C)C)Cc1cccc2c1OCCO2
2. COCC(O)CNC(=O)c1coc(COc2ccc3sc(C)nc3c2)n1 (centres undefined)
3. CC(CNC(=O)c1ccn(-c2ccc(F)cc2)n1)Cn1cccn1 (centres undefined)
4. c1ccc(-c2nnc([C@H]3CCN(C4CCOCC4)C3)o2)cc1

1: -18.7; 2: 10.8; 3: -41.4; 4: -1.05

----------
test: Toxicity liver stage against HepG2, at 10uM; assay type: cell-based; set-up: test concentration 10 uM, cell line HepG2-A16-CD81EGFP; settings: human, HepG2-A16-CD81EGFP cells; read-out: INHIBITION
Provide the recorded cytotoxicity at 10 µM for the entries that follow.
Numbers only, in %.

Consider the following illustrative entries.
{"compound": "COC[C@H]1CCC[C@]12CN(C(=O)NCc1ccccc1)CCO2", "measurement.kind": "cytotoxicity at 10 µM", "experimental.value": -11.6}
{"compound": "Cc1nccn1-c1cc(CNC(=O)C2CCCO2)ccn1 (stereo not given)", "measurement.kind": "cytotoxicity at 10 µM", "experimental.value": -7.81}
{"compound": "O=C(CSCC1CC1)N1CCCN(Cc2ccc(F)cc2)CC1", "measurement.kind": "cytotoxicity at 10 µM", "experimental.value": 3.54}
{"compound": "O=C(N1CCCC1)N1CCC[C@]2(C[C@@H](Oc3ncccc3F)CO2)C1", "measurement.kind": "cytotoxicity at 10 µM", "experimental.value": -0.269}
{"compound": "COc1cccc(C(=O)N2C[C@@H](C(=O)O)[C@H](c3ccccc3C)C2)c1", "measurement.kind": "cytotoxicity at 10 µM", "experimental.value": 0.291}

Would you mind giving cytotoxicity at 10 µM for every compound in the list below?
1. Fc1ccc(NCc2ccncc2)c(OC(F)F)c1
2. CN(C)C(=O)CC1CC2(CCN(Cc3ccsc3)CC2)c2ccccc21 (stereo not given)
3. COc1ncccc1-c1cc(C(=O)NC2CC2)ccn1
4. Cc1csc(C(Cc2ccsc2)NC(=O)CN(C)Cc2ccccn2)n1 (stereo not given)
5. CC(=O)N1CCC2(CC1)CNc1ccc(F)cc12
6. COc1cccc(-c2n[nH]cc2CNC2CCN(C(C)C)CC2)c1
7. Cc1cc(CNC(=O)NCc2cccs2)ccc1S(C)(=O)=O

1. 10.5
2. 1.13
3. -11.8
4. 0.258
5. 1.63
6. 0.353
7. -6.97

Would you mind giving cytotoxicity at 10 µM for every compound in the list below?
1. Cc1cc(CNC(=O)C(c2ccc(F)cc2)N(C)C)n[nH]1 (stereo not given)
2. Cc1cc(N2CCN(C(=O)c3cccnc3)CC2)nc(C)n1
3. CC1CN(CC(=O)NCc2ccc(F)cc2)CCN1c1nccs1 (stereo not given)
4. Cc1cccc(CN(Cc2ccc(C)o2)C2CC(C)(C)NC(C)(C)C2)n1
5. CC(C)NC(=O)c1ccc2c(c1)C(c1nc[nH]n1)CN2C (stereo not given)
6. C[C@]1(O)CN(Cc2ccc(C(=O)O)cc2)CC[C@@H]1Oc1cccc(F)c1
7. CN(C)C1COC2(CCN(Cc3ccc4c(c3)OCO4)CC2)C1 (stereo not given)

1: -15; 2: 4.28; 3: -1.22; 4: -2.42; 5: -141; 6: -6.66; 7: -5.19

Quick one: cytotoxicity at 10 µM for COc1cccc(COCC(=O)N2CCCC(n3ccnc3C)C2)c1 (stereo not given) ?
-7.77

----------
experiment: Toxicity liver stage against HepG2, at 10uM; assay type: cell-based; parameters: test concentration 10 uM, cell line HepG2-A16-CD81EGFP; conditions: human, HepG2-A16-CD81EGFP cells; read-out: INHIBITION
Provide the recorded cytotoxicity at 10 µM for the entries that follow.
Answers are plain numbers, in %.

Would you mind giving cytotoxicity at 10 µM for every molecule in the list below?
1. Cc1ccc(C(=O)N2CC(Oc3ccccc3C)C2)s1
2. COCC(=O)N1C[C@H]2CCC[C@@]2(COC)C1
3. CCS(=O)(=O)c1ncc(CN(C)CCc2ccccn2)n1CCOC
4. CC1(C)Cc2cc(-c3cncn3CCNC3CCS(=O)(=O)C3)ccc2O1 (stereo unspecified)
5. CCc1ncc(C(=O)NCCN2CCNC2=O)cn1
6. COc1ccc(OC)c(CN2CCN(Cc3cscn3)CC2)c1

1: 17.1; 2: 5.93; 3: -3.98; 4: 2.95; 5: 0.069; 6: -7.15

Would you mind giving cytotoxicity at 10 µM for every molecule in the list below?
1. O=C1CC[C@@H]2[C@@H](CCN2C(=O)C2CCOCC2)N1CC1CC1
2. Cc1cccc(CC(=O)N2CCOCC2c2c(C)n[nH]c2C)c1 (stereo unspecified)
3. COc1ccc(CSc2nnc(N)n2C2CC2)cc1F
4. COc1cccc(S(=O)(=O)CCN2CCN(CCO)CC2)c1
5. Cc1cc(CN(C2CC2)C(C)C(C)C)on1 (stereo unspecified)

10.9
9.18
5.11
0.878
-0.212

Would you mind giving cytotoxicity at 10 µM for every molecule in the list below?
1. CC(NC(=O)c1ccc(CS(C)(=O)=O)o1)c1ccc(F)c(F)c1 (stereo unspecified)
2. Cc1nc(C(C)C)sc1C(=O)NCCNc1ncccc1C#N
3. O=C(Cc1ccon1)N1CCN(c2ccncc2Cl)CC1
4. COc1ccc(-n2ncc(C(C)NC3Cc4ccccc4C3)c2C)cc1 (stereo unspecified)
5. c1ncn(CC2CN(Cc3csc(C4CCCC4)n3)CCO2)n1 (stereo unspecified)
6. CCN(C(=O)c1nc2c(s1)CCCN2C)C(C)C
7. O=C1NC2(Cc3ccccc31)CN(CC1CCOCC1)C2
8. Cc1ccc(NC2CCN(C(=O)c3n[nH]c4ccccc34)CC2)nn1

[-5.85, -2.55, -2.47, -6.32, -8.55, 4.37, 14, 2.96]

----------
assay: Toxicity liver stage against HepG2, at 10uM; assay type: cell-based; design: test concentration 10 uM, cell line HepG2-A16-CD81EGFP; settings: human, HepG2-A16-CD81EGFP cells; read-out: INHIBITION
measurement.kind: cytotoxicity at 10 µM (%)
Answers are plain numbers, in %.

{"compound": "CCOCC(O)CN1CCN(C(=O)c2ccsc2)CC1 (stereo unspecified)", "unit.descriptor": "%", "cytotoxicity at 10 µM": 5.42}
{"compound": "CC(C)N(C)CC(=O)N(C)C(c1cccc(F)c1)c1ccccn1 (stereo unspecified)", "unit.descriptor": "%", "cytotoxicity at 10 µM": -6.14}
{"compound": "O=C(NCC1CCN(Cc2cc3ccccc3[nH]2)C1)c1ccsc1 (stereo unspecified)", "unit.descriptor": "%", "cytotoxicity at 10 µM": 15.6}
{"compound": "Cc1ccc(C(=O)N2CC[C@@H]3[C@H]2CCC(=O)N3CCN(C)C)cn1", "unit.descriptor": "%", "cytotoxicity at 10 µM": -0.726}
{"compound": "CCCN1CCN(Cc2nccn2CC)C(C)C1 (stereo unspecified)", "unit.descriptor": "%", "cytotoxicity at 10 µM": 8.14}
{"compound": "COCC1CN(Cc2ccoc2)Cc2nn(C)cc21 (stereo unspecified)", "unit.descriptor": "%", "cytotoxicity at 10 µM": -81.7}

Would you mind giving cytotoxicity at 10 µM for every compound in the list below?
1. CC(C)(C)c1cc(=O)n2c(n1)SCC(C(=O)NCc1cccs1)C2 (stereo unspecified)
2. CCN(CC)C(CNC(=O)c1ccnc(N(C)C)c1)c1ccsc1 (stereo unspecified)
3. Cc1ccsc1CN(CCCO)Cc1nc2ccccc2[nH]1
4. COc1ccc(CNCCn2c(C)nc3ccccc32)cc1O
5. Cc1nn(C)c(N2CCOCC2)c1CNC(C)c1ccco1 (stereo unspecified)

1: 12.9; 2: -149; 3: -21.3; 4: -3.51; 5: -17.6

----------
Provide the recorded cytotoxicity at 10 µM for the entries that follow.
assay: Toxicity liver stage against HepG2, at 10uM; assay type: cell-based; set-up: test concentration 10 uM, cell line HepG2-A16-CD81EGFP; conditions: human, HepG2-A16-CD81EGFP cells; read-out: INHIBITION
Give bare numbers, in %.

Consider the following illustrative entries.
{"compound": "Cc1ccc(N2CCC(c3[nH]ncc3Cc3ccccc3)CC2)nn1", "unit.descriptor": "%", "cytotoxicity at 10 µM": -6.86}
{"compound": "CN1N=C(C(=O)NCCc2csc(-c3ccccc3)n2)CCC1=O", "unit.descriptor": "%", "cytotoxicity at 10 µM": 0.621}
{"compound": "CCCN(CC)C(=O)c1nc2c(n1C)CCN(Cc1ccccc1)C2", "unit.descriptor": "%", "cytotoxicity at 10 µM": 7.28}
{"compound": "COc1ccc(CNC(Cn2cncn2)c2ccccc2)cc1O (stereo unspecified)", "unit.descriptor": "%", "cytotoxicity at 10 µM": -6.74}
{"compound": "Cc1cc(N2CCC3(CC2)C(C(=O)O)CC(=O)N3C)nc2ccccc12 (stereo unspecified)", "unit.descriptor": "%", "cytotoxicity at 10 µM": -1.6}
{"compound": "CCc1nc(CNC(=O)C2CCC(=O)N(Cc3ccccc3F)C2)no1 (stereo unspecified)", "unit.descriptor": "%", "cytotoxicity at 10 µM": -1.88}
{"compound": "Cc1cc(C)c(CNC(=O)N2CCCC2c2cccn2C)c(=O)[nH]1 (stereo unspecified)", "unit.descriptor": "%", "cytotoxicity at 10 µM": -2.82}
{"compound": "CCCNC(=O)CCNC(=O)N1CCC(=Cc2ccccc2)CC1", "unit.descriptor": "%", "cytotoxicity at 10 µM": 1.47}

Would you mind giving cytotoxicity at 10 µM for every compound in the list below?
1. CCc1n[nH]c(C2CN(CCc3cccs3)CCO2)n1 (stereo unspecified)
2. O=C(NCC(F)(F)F)c1ccc(-n2cncn2)nn1
3. Cc1ccc(CN2CC[C@H]3C[C@H](c4nc(C5CC5)cs4)O[C@@H]3C2)o1

1: 3.83; 2: -1.66; 3: 3.81
